target: 5-hydroxytryptamine receptor 2B (Homo sapiens) (UniProt P41595); test: Inhibition of 5-HT2B receptor (unknown origin) at 10 uM by CEREP analysis relative to control
Sequence (P41595 whole entry): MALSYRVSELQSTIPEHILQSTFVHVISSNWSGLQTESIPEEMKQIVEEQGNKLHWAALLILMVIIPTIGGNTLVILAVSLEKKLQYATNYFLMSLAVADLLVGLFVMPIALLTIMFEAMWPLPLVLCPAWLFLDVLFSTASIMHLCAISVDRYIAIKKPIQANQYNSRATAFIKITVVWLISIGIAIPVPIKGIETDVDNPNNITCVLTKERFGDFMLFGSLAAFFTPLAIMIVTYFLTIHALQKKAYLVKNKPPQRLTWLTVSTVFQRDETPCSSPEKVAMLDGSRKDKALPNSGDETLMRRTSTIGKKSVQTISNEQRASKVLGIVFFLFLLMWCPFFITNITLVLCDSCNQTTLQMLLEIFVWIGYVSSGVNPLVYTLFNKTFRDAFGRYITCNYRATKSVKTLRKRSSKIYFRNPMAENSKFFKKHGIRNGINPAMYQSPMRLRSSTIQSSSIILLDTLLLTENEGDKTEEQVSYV
Quantity: inhibition (%)

[P] COc1cc2c(Oc3c(F)cc(NC(=O)c4cnccc4OC4CC4)cc3F)ccnc2cc1OCCO
[Q] COc1cc2nccc(Oc3c(F)cc(NC(=O)c4cnccc4OC)cc3F)c2cc1OCCO
I need your help: which of the pair P , Q has higher inhibition? Indicate which entry you chose by stating its label.
P
(P: 69%, Q: 16%)

[a] CNCCOc1cc2nccc(Oc3c(F)cc(NC(=O)c4cnccc4OC)cc3F)c2cc1OC
[b] COc1cc2c(Oc3c(F)cc(NC(=O)c4cnccc4OC)cc3F)ccnc2cc1OCCO
Which of these two has the smaller recorded inhibition: a or b ? Could you answer with the label of the item you picked?
b
(b: 18%, a: 58%)

* * *

target: Sodium-dependent serotonin transporter (Homo sapiens); test: Inhibition of SERT (unknown origin) at 10 uM by CEREP analysis relative to control
Quantity: inhibition (%)

# annotated cases, reported inhibition shown
COc1cc2nccc(Oc3c(F)cc(NC(=O)c4cnccc4OC)cc3F)c2cc1OCCO    10
COc1cc2c(Oc3c(F)cc(NC(=O)c4cnccc4OC4CC4)cc3F)ccnc2cc1OCCO    4
COc1cc2nccc(Oc3c(F)cc(NC(=O)c4cnccc4OC)cc3F)c2cc1O[C@@H](C)CO    1

[I] CNCCOc1cc2nccc(Oc3c(F)cc(NC(=O)c4cnccc4OC)cc3F)c2cc1OC
[II] COc1cc2c(Oc3c(F)cc(NC(=O)c4cnccc4OC)cc3F)ccnc2cc1OCCO
Please compare: I and II . Report which one has the smaller inhibition value. Refer to your chosen entry by its label in the reply.
II
(II: 7%, I: 101%)

* * *

experiment: AUClast in male Beagle dog at 15 mg/kg, po; assay type: ADME, organism-based, Canis lupus familiaris; settings: in vivo
Quantity: AUC(0-t) (ng·h/mL)
Your answer is read as ng·h/mL, so omit the unit and give the number.

For the molecule shown here, COc1cc2nccc(Oc3c(F)cc(NC(=O)c4cnccc4OC)cc3F)c2cc1OCCO , give the reported AUC(0-t).
7170

* * *

test: Half life in male Beagle dog at 2 mg/kg, iv; type: ADME, organism-based, Canis lupus familiaris; conditions: in vivo
Quantity: half-life (h)
State the answer as a number, implicitly in h.

Give its half-life value. Item: COc1cc2nccc(Oc3c(F)cc(NC(=O)c4cnccc4OC)cc3F)c2cc1OCCO
7.1

* * *

assay: Dose-normalized AUC in female Balb/c mouse at 10 mg/kg, po; format: ADME, organism-based; conditions: in vivo
Quantity: AUC/dose (ng.h/mL per mg/kg)
Write the answer as a number in ng.h/mL per mg/kg, unit excluded.

I'd like to know its AUC/dose. The compound in question is COc1cc2nccc(Oc3c(F)cc(NC(=O)c4cnccc4OC)cc3F)c2cc1OCCO
822

* * *

assay: Kinetic solubility of compound at pH 4.5; type: physicochemical; settings: buffer, read-out: Kinetic_solubility
Quantity: solubility kinetic (µM)

COc1cc2nccc(Oc3ccc(NC(=O)c4cnccc4OC)cc3F)c2cc1OC    24
COc1cc2nccc(Oc3c(F)cc(NC(=O)c4cnccc4OC)cc3F)c2cc1O[C@@H](C)CO    145

[P] CNCCOc1cc2nccc(Oc3c(F)cc(NC(=O)c4cnccc4OC)cc3F)c2cc1OC
[Q] COc1cc2c(Oc3c(F)cc(NC(=O)c4cnccc4OC)cc3F)ccnc2cc1OCCO
[R] COc1cc2nccc(Oc3c(F)cc(NC(=O)c4cnccc4OC4CC4)cc3F)c2cc1OC
[S] CN1CCC(COc2cnc(-c3cccc(Cn4nc(-c5cccc(C#N)c5)ccc4=O)c3)nc2)CC1
[T] CNC(=O)c1ccc(-c2cnc3ncc(Cc4ccc5ncccc5c4)n3n2)cc1F
Put these in order: smallest solubility kinetic first, largest last. When ranking, write the labels in the order the request describes.
R, Q, T, S, P

[I] COc1cc2nccc(Oc3ccc(NC(=O)C4(C(=O)Nc5ccc(F)cc5)CC4)cc3)c2cc1OC [CABOZANTINIB]
[II] COc1cc2c(Oc3c(F)cc(NC(=O)c4cnccc4OC4CC4)cc3F)ccnc2cc1OCCO
[III] COCCNCc1ccc(-c2cc3nccc(Oc4ccc(NC(=S)NC(=O)Cc5ccc(F)cc5)cc4F)c3s2)nc1
[IV] COc1cc2nccc(Oc3c(F)cc(NC(=O)c4cnccc4OC)cc3F)c2cc1OCCO
Order the items by recorded solubility kinetic; the first position goes to the largest value. # respond with the labels, arranged in the requested order
IV, II, I, III
(IV: 12.7 µM, II: 8.1 µM, I: 5.2 µM, III: 0.12 µM)

* * *

Target: Tyrosine-protein kinase Mer (Homo sapiens)
Sequence (Q12866 whole entry): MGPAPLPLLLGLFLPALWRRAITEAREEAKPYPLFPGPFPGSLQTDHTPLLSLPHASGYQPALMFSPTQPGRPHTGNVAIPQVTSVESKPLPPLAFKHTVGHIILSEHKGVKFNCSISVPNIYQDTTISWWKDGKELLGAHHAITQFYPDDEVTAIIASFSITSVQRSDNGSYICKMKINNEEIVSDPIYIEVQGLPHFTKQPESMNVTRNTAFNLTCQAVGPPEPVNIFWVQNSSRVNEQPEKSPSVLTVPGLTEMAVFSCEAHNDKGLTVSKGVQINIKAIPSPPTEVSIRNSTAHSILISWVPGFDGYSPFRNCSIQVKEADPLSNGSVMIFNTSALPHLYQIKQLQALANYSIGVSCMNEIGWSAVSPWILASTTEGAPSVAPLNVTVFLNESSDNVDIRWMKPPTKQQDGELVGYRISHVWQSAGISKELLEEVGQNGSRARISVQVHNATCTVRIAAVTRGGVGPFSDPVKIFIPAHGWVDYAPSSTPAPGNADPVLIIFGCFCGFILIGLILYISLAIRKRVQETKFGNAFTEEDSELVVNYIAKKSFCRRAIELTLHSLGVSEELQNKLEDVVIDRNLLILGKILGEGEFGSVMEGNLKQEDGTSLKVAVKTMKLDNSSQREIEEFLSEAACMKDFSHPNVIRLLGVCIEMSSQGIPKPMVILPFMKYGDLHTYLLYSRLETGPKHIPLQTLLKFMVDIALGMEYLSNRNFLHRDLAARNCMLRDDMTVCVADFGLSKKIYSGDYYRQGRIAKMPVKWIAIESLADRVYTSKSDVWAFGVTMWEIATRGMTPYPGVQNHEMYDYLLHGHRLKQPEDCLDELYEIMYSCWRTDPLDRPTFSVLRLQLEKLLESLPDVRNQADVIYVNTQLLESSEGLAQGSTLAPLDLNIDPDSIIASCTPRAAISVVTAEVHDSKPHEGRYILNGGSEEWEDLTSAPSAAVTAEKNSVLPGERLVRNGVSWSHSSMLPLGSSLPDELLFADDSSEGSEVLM
Assay: Inhibition of MERTK (unknown origin) by fluorescence-based microfluidic mobility shift assay
Quantity: IC50 (nM)
Give a bare numeral; the unit nM is implied.

Any idea what its IC50 is? The compound is Cc1ccc(C(=O)Nc2ccc(Oc3cc4cnn(C)c4cc3-c3cn[nH]c3)c(F)c2)c(=O)n1-c1ccc(F)cc1 [MERESTINIB]
0.5

* * *

assay: Clearance in mouse; type: ADME, organism-based; conditions: in vivo
Quantity: clearance (mL/min/kg)

[A] CNCCOc1cc2nccc(Oc3c(F)cc(NC(=O)c4cnccc4OC)cc3F)c2cc1OC
[B] COc1cc2c(Oc3c(F)cc(NC(=O)c4cnccc4OC4CC4)cc3F)ccnc2cc1OCCO
clearance comparison. Which is larger, A or B ? Your answer should be the label of the entry you select.
A
(A: 43 mL/min/kg, B: 5.4 mL/min/kg)

* * *

molecular target: cGMP-inhibited 3',5'-cyclic phosphodiesterase 3A (Homo sapiens); experiment: Inhibition of PDE3A (unknown origin) at 10 uM by CEREP analysis relative to control
Quantity: inhibition (%)

COc1cc2nccc(Oc3c(F)cc(NC(=O)c4cnccc4OC)cc3F)c2cc1O[C@@H](C)CO    16
COc1cc2c(Oc3c(F)cc(NC(=O)c4cnccc4OC)cc3F)ccnc2cc1OCCO    98

[1] COc1cc2nccc(Oc3c(F)cc(NC(=O)c4cnccc4OC)cc3F)c2cc1OCCO
[2] CNCCOc1cc2nccc(Oc3c(F)cc(NC(=O)c4cnccc4OC)cc3F)c2cc1OC
[3] COc1cc2c(Oc3c(F)cc(NC(=O)c4cnccc4OC4CC4)cc3F)ccnc2cc1OCCO
Put the molecules in ascending order of inhibition. As an answer, provide the labels arranged in the order called for.
2, 1, 3

* * *

assay: AUClast in Balb/c mouse at 10 mg/kg, po; type: ADME, organism-based; settings: in vivo
Quantity: AUC(0-t) (ng·h/mL)
# number only, unit ng·h/mL dropped from output

COc1cc2nccc(Oc3c(F)cc(NC(=O)c4cnccc4OC)cc3F)c2cc1OCCO    8220

Next up:
Look up AUC(0-t) for this molecule: COc1cc2nccc(Oc3c(F)cc(NC(=O)c4cnccc4OC)cc3F)c2cc1O[C@@H](C)CO
13500
